# Species: Rattus norvegicus
# Experiment Description: DrugMatrix - Regimen: Daily Repeat
# Type: toxicity, organism-based, Sprague-Dawley
# Design: regimen Daily Repeat, gender Male, age 6-8 weeks
# Experimental Setup: in vivo, po, 0 mg/kg, 120 h, tissue Blood, route oral GAVAGE, dose level Control, time 5 day, vehicle 100 % WATER
Recorded Endpoint: ABSOLUTE EOSINOPHIL
Include the unit right after the number.

Example cases with answers are listed next.
{"Molecule": "NNc1nncc2ccccc12 [HYDRALAZINE]", "ABSOLUTE EOSINOPHIL": "22.83 CELLS/uL"}
{"Molecule": "O.O.O.O.O.O.[Cl-].[Cl-].[Sr+2] [STRONTIUM CHLORIDE HEXAHYDRATE]", "ABSOLUTE EOSINOPHIL": "248.67 CELLS/uL"}
{"Molecule": "Cn1c(=O)c2[nH]cnc2n(C)c1=O.O", "ABSOLUTE EOSINOPHIL": "0 CELLS/uL"}

Recorded ABSOLUTE EOSINOPHIL (molecule CCN(CC)CCNC(=O)c1cc(S(C)(=O)=O)ccc1OC [TIAPRIDE] ): 248.67 CELLS/uL

Recorded ABSOLUTE EOSINOPHIL (molecule Cc1ccc(NC(=O)c2ccc(CN3CCN(C)CC3)cc2)cc1Nc1nccc(-c2cccnc2)n1 ): 248.67 CELLS/uL

Recorded ABSOLUTE EOSINOPHIL (molecule CN1[C@@H]2CC[C@H]1C[C@@H](OC(=O)C(CO)c1ccccc1)C2 (some centres not stated) ): 48.67 CELLS/uL

Recorded ABSOLUTE EOSINOPHIL (molecule CS(=O)(=O)c1ccc([C@@H](O)[C@@H](CO)NC(=O)C(Cl)Cl)cc1 ): 248.67 CELLS/uL

====

# Species on record: Rattus norvegicus
# Experiment Description: DrugMatrix - Regimen: Daily Repeat
# Format: toxicity, organism-based, Sprague-Dawley
# Parameters: regimen Daily Repeat, gender Male, age 6-8 weeks
# Experimental Setup: in vivo, po, 1500 mg/kg, 72 h, tissue Blood, route oral GAVAGE, dose level High, time 3 day, vehicle .5 % CMC
Recorded Endpoint: ABSOLUTE EOSINOPHIL
Include the unit right after the number.

Recorded ABSOLUTE EOSINOPHIL (compound CC(C)=CCC/C(C)=C/CO ): 0 CELLS/uL

====

# Organism: Rattus norvegicus
# Experiment Description: DrugMatrix - Regimen: Daily Repeat
# Type: toxicity, organism-based, Sprague-Dawley
# Parameters: regimen Daily Repeat, gender Male, age 6-8 weeks
# Experimental Setup: in vivo, po, 0 mg/kg, 120 h, tissue Blood, route oral GAVAGE, dose level Control, time 5 day, vehicle 100 % WATER
Recorded Endpoint: NUCLEATED RED BLOOD CELLS

{"Molecule": "O.O.O.O.O.O.[Cl-].[Cl-].[Sr+2] [STRONTIUM CHLORIDE HEXAHYDRATE]", "Recorded Endpoint": "NUCLEATED RED BLOOD CELLS", "Endpoint Value": "0 /100WBC"}
{"Molecule": "Cc1ccc(NC(=O)c2ccc(CN3CCN(C)CC3)cc2)cc1Nc1nccc(-c2cccnc2)n1", "Recorded Endpoint": "NUCLEATED RED BLOOD CELLS", "Endpoint Value": "0 /100WBC"}
{"Molecule": "C[C@]12C=CC(=O)C=C1CC[C@@H]1[C@@H]2[C@@H](O)C[C@@]2(C)[C@H]1CC[C@]2(O)C(=O)CO", "Recorded Endpoint": "NUCLEATED RED BLOOD CELLS", "Endpoint Value": "0.17 /100WBC"}
{"Molecule": "CN1[C@@H]2CC[C@H]1C[C@@H](OC(=O)C(CO)c1ccccc1)C2 (some centres undefined)", "Recorded Endpoint": "NUCLEATED RED BLOOD CELLS", "Endpoint Value": "0.33 /100WBC"}
{"Molecule": "CN(C)CC[C@@H](c1ccc(Cl)cc1)c1ccccn1", "Recorded Endpoint": "NUCLEATED RED BLOOD CELLS", "Endpoint Value": "0 /100WBC"}
{"Molecule": "Cn1c(=O)c2[nH]cnc2n(C)c1=O.O", "Recorded Endpoint": "NUCLEATED RED BLOOD CELLS", "Endpoint Value": "0.17 /100WBC"}
{"Molecule": "NNc1nncc2ccccc12 [HYDRALAZINE]", "Recorded Endpoint": "NUCLEATED RED BLOOD CELLS", "Endpoint Value": "0.17 /100WBC"}
{"Molecule": "CN(C)CCOC(c1ccccc1)c1ccccc1 [DIPHENHYDRAMINE]", "Recorded Endpoint": "NUCLEATED RED BLOOD CELLS", "Endpoint Value": "0.17 /100WBC"}

In the following, a different molecule is considered.
Recorded NUCLEATED RED BLOOD CELLS (molecule CC(C)NCC(O)c1ccc(NS(C)(=O)=O)cc1 (centres undefined) ): 0 /100WBC
